- TARGET_OR_TEST_SYSTEM: preformed α-Syn amyloid fibrils (Homo sapiens)
- Construct: made in house; host or cells: Escherichia coli BL21
- ASSAY_OVERVIEW: TEM of preformed α-Syn fibrils with analogs
- Type: biochemical
- STATED_CONDITIONS: after 48 h incubation with analog
REPORTED_PROPERTY: fibril morphology/thickness of preformed α-Syn fibrils (TEM, words)

> print(dat)
                         molecule.smiles      measurement
1  O=C(/C=C/c1cccnc1)CC(=O)/C=C/c1cccnc1  thinner fibrils
2    O=C(/C=C/c1cccs1)CC(=O)/C=C/c1cccs1  thinner fibrils
3  O=C(/C=C/c1ccccc1)CC(=O)/C=C/c1ccccc1  thinner fibrils

---

- TARGET_OR_TEST_SYSTEM: α-Syn fibrils (Homo sapiens)
- ASSAY_OVERVIEW: Binding affinity to α-Syn fibrils by curcumin analog fluorescence
- STATED_CONDITIONS: 10 μM fibrils, 0.25–30 μM analog, 30 min RT; read-out: dissociation constant (Kd) for α-Syn fibrils
Would you mind telling me the reported Kd of each entry?
The reply must contain the numeric value and, after it, the unit.

(Q) Consider the compound COc1cc(/C=C/C(=O)CC(=O)/C=C/c2ccc(OCc3ccccc3)c(OC)c2)ccc1OCc1ccccc1 [C6] and give its measured Kd.
(A) 0.482 µM

(Q) Next record, please: O=C(/C=C/c1ccccc1)CC(=O)/C=C/c1ccccc1 [C7]
(A) 13.2 µM
